# TARGET OF ASSAY: Tyrosine-protein kinase JAK2 (Homo sapiens, UniProt O60674)
# Sequence (O60674 whole entry): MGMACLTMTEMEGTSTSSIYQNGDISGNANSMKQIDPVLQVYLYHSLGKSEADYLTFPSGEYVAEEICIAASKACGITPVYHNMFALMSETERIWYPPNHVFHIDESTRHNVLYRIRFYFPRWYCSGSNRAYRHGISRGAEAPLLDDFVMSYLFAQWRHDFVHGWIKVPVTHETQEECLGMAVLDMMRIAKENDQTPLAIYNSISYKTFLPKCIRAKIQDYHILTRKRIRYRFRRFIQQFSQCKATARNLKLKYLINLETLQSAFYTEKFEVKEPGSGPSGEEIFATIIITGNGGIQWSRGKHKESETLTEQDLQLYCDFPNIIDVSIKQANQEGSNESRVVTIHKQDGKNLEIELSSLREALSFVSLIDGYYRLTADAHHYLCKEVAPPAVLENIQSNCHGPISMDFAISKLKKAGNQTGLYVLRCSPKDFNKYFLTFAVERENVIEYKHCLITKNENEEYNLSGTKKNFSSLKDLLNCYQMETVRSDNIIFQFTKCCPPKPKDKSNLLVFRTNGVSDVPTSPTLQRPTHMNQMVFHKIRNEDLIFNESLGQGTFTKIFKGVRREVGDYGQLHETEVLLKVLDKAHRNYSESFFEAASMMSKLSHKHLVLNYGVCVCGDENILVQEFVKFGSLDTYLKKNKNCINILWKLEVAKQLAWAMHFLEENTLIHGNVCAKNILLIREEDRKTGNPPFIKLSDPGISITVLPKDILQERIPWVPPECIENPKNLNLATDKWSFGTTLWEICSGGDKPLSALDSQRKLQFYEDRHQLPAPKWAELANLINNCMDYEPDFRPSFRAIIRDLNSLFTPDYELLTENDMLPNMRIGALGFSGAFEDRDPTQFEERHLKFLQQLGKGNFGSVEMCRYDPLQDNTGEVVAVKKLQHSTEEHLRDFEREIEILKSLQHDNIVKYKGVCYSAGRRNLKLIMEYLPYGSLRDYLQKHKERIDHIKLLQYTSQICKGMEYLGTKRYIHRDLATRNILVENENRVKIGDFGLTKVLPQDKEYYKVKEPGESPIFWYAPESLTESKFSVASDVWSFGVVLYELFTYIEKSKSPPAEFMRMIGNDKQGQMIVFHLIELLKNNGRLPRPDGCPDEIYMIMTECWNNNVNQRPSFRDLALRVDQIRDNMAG
# MEASUREMENT DESCRIPTION: Inhibition of human recombinant JAK2 using Z'LYTETry6 peptide substrate after 1 hr by microplate reader
PROPERTY: pIC50
Hey, just a heads up that pIC50 is the negative log base 10 of the concentration in molar.

| STRUCTURE | TARGET OF ASSAY | MEASURED NUMBER |
| --- | --- | --- |
| O=C(CCCCCN1C/C=C/CCOc2cccc(c2)-c2ccnc(n2)Nc2cccc(c2)C1)NO | Tyrosine-protein kinase JAK2 (Homo sapiens, UniProt O60674) | 5.98 |

We now examine a further compound.
Prompt: What does the record list as pIC50 for `O=C(CCCCC(=O)N1C/C=C/COCc2cccc(c2)-c2ccnc(n2)Nc2cccc(c2)C1)NO` ?
Response: 6.26

###

# TARGET OF ASSAY: Histone deacetylase
# MEASUREMENT DESCRIPTION: Inhibition of HDAC (unknown origin) using Fluor de Lys substrate after 2 hrs by microplate reader
# Assay type: protein assay, Homo sapiens
PROPERTY: IC50 (nM)
Please give a number only; it is taken to be in nM.

| STRUCTURE | IC50 [nM] |
| --- | --- |
| O=C(CCCCCCC(=O)N1C/C=C/COCc2cccc(c2)-c2ccnc(n2)Nc2cccc(c2)C1)NO | 293 |

Prompt: Recorded IC50 for `O=C(CCCCC(=O)N1C/C=C/CCOc2cccc(c2)-c2ccnc(n2)Nc2cccc(c2)C1)NO` with Histone deacetylase, please?
Response: 848

Prompt: Can you check `O=C(CCCCCCN1C/C=C/COCc2cccc(c2)-c2ccnc(n2)Nc2cccc(c2)C1)NO` next?
Response: 159

Prompt: Can you check `O=C(CCCCCCN1C/C=C/CCOc2cccc(c2)-c2ccnc(n2)Nc2cccc(c2)C1)NO` next?
Response: 87

Prompt: Can you check `O=C(CCCCCN1C/C=C/COCc2cccc(c2)-c2ccnc(n2)Nc2cccc(c2)C1)NO` next?
Response: 123

Prompt: Can you check `O=C(CCCCCCCC(=O)N1C/C=C/COCc2cccc(c2)-c2ccnc(n2)Nc2cccc(c2)C1)NO` next?
Response: 334

Prompt: Can you check `O=C(CCCCCCC(=O)N1C/C=C/CCOc2cccc(c2)-c2ccnc(n2)Nc2cccc(c2)C1)NO` next?
Response: 310

Prompt: Can you check `O=C(CCCCCN1C/C=C/CCOc2cccc(c2)-c2ccnc(n2)Nc2cccc(c2)C1)NO` next?
Response: 152

Prompt: Can you check `O=C(CCCCN1C/C=C/COCc2cccc(c2)-c2ccnc(n2)Nc2cccc(c2)C1)NO` next?
Response: 158

Prompt: Can you check `O=C(CCCCCCCC(=O)N1C/C=C/CCOc2cccc(c2)-c2ccnc(n2)Nc2cccc(c2)C1)NO` next?
Response: 355

Prompt: Can you check `O=C(CCCCN1C/C=C/CCOc2cccc(c2)-c2ccnc(n2)Nc2cccc(c2)C1)NO` next?
Response: 251

Prompt: Can you check `O=C(CCCCC(=O)N1C/C=C/COCc2cccc(c2)-c2ccnc(n2)Nc2cccc(c2)C1)NO` next?
Response: 402

###

# System: MDA-MB-435
# MEASUREMENT DESCRIPTION: Antiproliferative activity against human MDA-MB-435 cells assessed as growth inhibition after 48 hrs by SRB assay
# Assay type: functional
# APPLIED CONDITIONS: MDA-MB-435, 48 h
Listing: GI50 of selected molecules
Please give a number only; it is taken to be in nM.

| STRUCTURE | MEASURED NUMBER |
| --- | --- |
| O=C(CCCCN1C/C=C/COCc2cccc(c2)-c2ccnc(n2)Nc2cccc(c2)C1)NO | 1880 |
| O=C(CCCCCCN1C/C=C/CCOc2cccc(c2)-c2ccnc(n2)Nc2cccc(c2)C1)NO | 1770 |
| O=C(CCCCCN1C/C=C/CCOc2cccc(c2)-c2ccnc(n2)Nc2cccc(c2)C1)NO | 2630 |
| O=C(CCCCCCN1C/C=C/COCc2cccc(c2)-c2ccnc(n2)Nc2cccc(c2)C1)NO | 1500 |

Prompt: What does the record list as GI50 for `O=C(CCCCC(=O)N1C/C=C/CCOc2cccc(c2)-c2ccnc(n2)Nc2cccc(c2)C1)NO` ?
Response: 2410

Prompt: Can you check `O=C(CCCCN1C/C=C/CCOc2cccc(c2)-c2ccnc(n2)Nc2cccc(c2)C1)NO` next?
Response: 2720
